- Assay Target: Transient receptor potential cation channel subfamily V member 1 (Homo sapiens, UniProt Q8NER1)
- Sequence (Q8NER1 whole entry): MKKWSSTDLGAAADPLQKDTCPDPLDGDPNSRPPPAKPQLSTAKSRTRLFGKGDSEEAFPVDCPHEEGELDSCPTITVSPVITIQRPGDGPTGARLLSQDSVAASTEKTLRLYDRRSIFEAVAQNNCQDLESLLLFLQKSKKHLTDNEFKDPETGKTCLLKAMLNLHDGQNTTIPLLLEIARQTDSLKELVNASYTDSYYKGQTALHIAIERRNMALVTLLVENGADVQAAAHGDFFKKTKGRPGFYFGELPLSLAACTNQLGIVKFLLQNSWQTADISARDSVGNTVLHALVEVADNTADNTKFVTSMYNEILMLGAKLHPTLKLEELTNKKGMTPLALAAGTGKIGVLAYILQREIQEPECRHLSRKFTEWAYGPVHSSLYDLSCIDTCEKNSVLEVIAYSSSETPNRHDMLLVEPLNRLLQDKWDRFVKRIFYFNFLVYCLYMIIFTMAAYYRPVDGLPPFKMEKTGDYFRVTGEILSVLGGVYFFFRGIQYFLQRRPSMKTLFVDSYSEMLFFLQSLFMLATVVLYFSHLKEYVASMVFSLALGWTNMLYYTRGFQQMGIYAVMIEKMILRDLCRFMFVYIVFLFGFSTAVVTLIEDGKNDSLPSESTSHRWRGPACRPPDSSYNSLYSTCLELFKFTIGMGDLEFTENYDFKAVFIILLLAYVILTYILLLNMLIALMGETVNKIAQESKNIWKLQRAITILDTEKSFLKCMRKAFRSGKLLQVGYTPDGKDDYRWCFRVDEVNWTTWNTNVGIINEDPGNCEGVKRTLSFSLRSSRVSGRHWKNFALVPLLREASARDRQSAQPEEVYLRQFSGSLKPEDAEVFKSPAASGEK
- Protocol Summary: Antagonistic activity towards human vanilloid receptor subtype 1 expressed in HEK293 cell […], as inhibition of agonist-induced intracellular [Ca2+] levels.
Test Readout: pIC50
Remember, pIC50 is on a log scale: it is -log10 of the molar concentration.

Looking up `O=C(NCc1ccc(OC(F)(F)F)cc1)Nc1cccc2cnccc12` , I found its pIC50 recorded as 8.52

The measured pIC50 associated with `CC(C)(C)c1ccc(CCNC(=O)Nc2cccc3cnccc23)cc1` reads 8.52

Short answer for `O=C(Nc1cccc(C(F)(F)F)c1)Nc1cccc2cnccc12` : pIC50 was 7.49

Per the record, `O=C(NCc1ccc(Cl)cc1)Nc1cccc2cnccc12` has pIC50 of 8.22

The compound identified as `O=C(NCCc1ccc(Cl)c(Cl)c1)Nc1cccc2cnccc12` registered its pIC50 at 8.00

Item: `O=C(Nc1ccc(Cl)c(Cl)c1)Nc1cccc2cnccc12` | pIC50: 6.77

Lab book: pIC50 of `O=C(NCCc1ccccc1)Nc1cccc2cnccc12` noted as 6.00

Quick note, pIC50 for `O=C(NCCc1cccc(C(F)(F)F)c1)Nc1cccc2cnccc12` landed at 7.72

In plain terms, `O=C(CCc1ccc(C(F)(F)F)cc1)Nc1cccc2cnccc12` has a documented pIC50 of 7.42

Input `O=C(/C=C/c1ccccc1)Nc1cccc2cnccc12` . Output pIC50: 5.82

// pIC50 lookup, compound = `O=C(NCc1ccc(Cl)c(Cl)c1)Nc1cccc2cnccc12` , result: 8.40

Memo: `CC(C)(C)c1ccc(CCC(=O)Nc2cccc3cnccc23)cc1` , reported pIC50: 6.39

Per the record, `O=C(Nc1cc(C(F)(F)F)cc(C(F)(F)F)c1)Nc1cccc2cnccc12` has pIC50 of 7.49

So for `O=C(NCc1cccc(C(F)(F)F)c1)Nc1cccc2cnccc12` , the logged pIC50 turned out to be 7.96

// pIC50 value for `CCCCCc1ccc(C(=O)Nc2cccc3cnccc23)cc1` : 5.62

Reported pIC50 for `O=C(NCCc1ccc(OC(F)(F)F)cc1)Nc1cccc2cnccc12` was 7.96

pIC50 reported for this compound `CC(C)(C)c1ccc(CNC(=O)Nc2cccc3cnccc23)cc1` : 8.52

Form field pIC50, entry `O=C(NCc1ccc(C(F)(F)F)cc1)Nc1cccc2cnccc12` : 8.52

Sample `CC(C)(C)c1ccc(/C=C/C(=O)Nc2cccc3cnccc23)cc1` ; pIC50 observed: 8.30

Just so you know, measured pIC50 for `COc1ccc(CCNC(=O)Nc2cccc3cnccc23)cc1` came out at 6.17

Short answer for `COc1ccc(CNC(=O)Nc2cccc3cnccc23)cc1` : pIC50 was 7.35

pIC50 reported for this compound `O=C(NCCc1ccc(C(F)(F)F)cc1)Nc1cccc2cnccc12` : 7.72

Item: `CCCCc1ccc(NC(=O)Nc2cccc3cnccc23)cc1` | pIC50: 6.31

# compound `CCC(C)(C)c1ccc(CCC(=O)Nc2cccc3cnccc23)cc1` ; its pIC50 = 7.89

Entry `O=C(NCc1ccc(Cl)c(C(F)(F)F)c1)Nc1cccc2cnccc12` ; pIC50 = 8.22
